# TARGET SYSTEM: T1, mouse CD36 (on HEK 293 cells) (mouse, UniProt Q08857 1-472)
# T1 construct: also called Murine CD36
# T1 sequence (Q08857 whole entry): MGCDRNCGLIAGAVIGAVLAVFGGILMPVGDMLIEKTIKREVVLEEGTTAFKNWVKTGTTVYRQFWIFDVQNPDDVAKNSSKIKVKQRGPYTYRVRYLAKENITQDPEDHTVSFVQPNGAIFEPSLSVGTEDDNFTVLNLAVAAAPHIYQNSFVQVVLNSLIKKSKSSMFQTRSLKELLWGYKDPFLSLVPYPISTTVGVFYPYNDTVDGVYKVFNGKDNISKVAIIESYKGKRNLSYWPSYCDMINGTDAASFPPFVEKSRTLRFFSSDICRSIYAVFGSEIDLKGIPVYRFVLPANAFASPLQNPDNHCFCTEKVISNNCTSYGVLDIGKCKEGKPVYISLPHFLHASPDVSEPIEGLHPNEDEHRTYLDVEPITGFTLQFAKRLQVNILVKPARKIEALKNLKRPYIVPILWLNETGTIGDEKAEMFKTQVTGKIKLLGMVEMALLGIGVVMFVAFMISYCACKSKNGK
# METHOD NOTES: FACS, HEK 293 cells transiently overexpressing CD36;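 also: antibody binding to transfected cells detected by flow cytometry with a fluorescent anti-human secondary antibody, EC50 from a four-parameter sigmoidal fit of mean fluorescence intensity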
TEST READOUT: pEC50
Notebook: values listed as pEC50 are -log10 of the concentration (mol/L).

Worked cases, answers included:
{"columns": ["BINDER", "pEC50"],
 "data": [
  ["12G04 (antibody, human IgG1, V domains shown, Chimeric: mouse variable regions on human IgG1 LALA (L234A/L235A); also called 012G04) VH: EVQLVESGGGLVQPGESLKLSCESNEYEFPSHDMSWVRKTPEKRLELVAAINSDGGYTYYPDTMERRFIISRDNTKKTLYLQMSSLRSEDTALYYCARHGYDYDEEGAWFAYWGQGTLVTVSA VL: ETTVTQSPASLSMAIGEKVTIRCITSTDIDDDMNWYQQKPGEPPKLLISEGNTLRPGVPSRFSSTGYGTDFVFSIENMLSEDVADYYCLQSDNLPFTFGSGTKLEIK", 8.92],
  ["38G04 (antibody, human IgG1, V domains shown, Chimeric: chicken variable regions on human IgG1 LALA (L234A/L235A); also called 038G04) VH: AVTLDESGGGLQTPGRALSLVCKASGFTFSSYNMFWVRQAPGKGLEWVAGIDDDGSFTLYGAAVKGRATISRDNGQSTVRLQLNNLRAEDTGTYYCARDSGAVSIDAWGHGTEVIVSS VL: ALTQPSSVSANPGETVKITCSGGDSDYGWYQQKSPGSAPVTVIYQNDKRPSDIPSRFSGSASGSTATFTITGVQAEDEAVYYCGGWDGSYDGAVFGAGTTLTVL", 9.16]
]}

Turning now to a further record.
[in] In one line, give reported pEC50 of the entry 32G04 (antibody, human IgG1, V domains shown, Chimeric: mouse variable regions on human IgG1 LALA (L234A/L235A); also called 032G04) VH: EEKLEESGGGLVQPGGSMKLSCVASGFTFSNYWMNWVRQSPEKGLEWVAEIRLKSNNYATHYAESVKGRFTISRDDSKSSVYLQMNNLRAEDTGIYYCTPLLLRWGQGTTLTVSS VL: ENVLTQSPAIMSASPGEKVTMTCRASSSLSSTYLHWYQQKSGASPKLWIYSTSNLASGVPARFSGSGSGTSYSLTISSVEAEDAATYYCQQYSGYPLTFGSGTKLEIK .
[out] 8.29
